- method_description: basal RPMI8226 mitochondrial membrane potential changes, profiling panel, cell-based, JC-1 fluorescence, 24 h, 100 nL compound (AID 1169); further: test concentration not given here
- protocol_conditions: RPMI8226 myeloma, JC-1 mitochondrial potential fluorescence, higher = more signal
metric_name: z-score
Output: the number by itself.

{"mol_smiles": "COc1ccc([Si](C)(C)[C@H]2[C@H](CC(=O)N(CCO)Cc3ccccc3)O[C@@]3(C(=O)N(Cc4cccc(N5C(=O)COc6ccccc65)c4)c4ccccc43)[C@@H]2C)cc1", "z-score": -0.943}

Supply reported z-score belonging to this compound: CC(C)(C)OC(=O)CC[C@]1(C(=O)NCc2ccccc2)N=C(c2ccc(OCCCO)cc2)O[C@H]1c1ccccc1N=[N+]=[N-]
-0.578

Supply reported z-score belonging to this compound: C=C(COC)/C(=C/C[C@H](OC(C)=O)c1ccc(CO)o1)c1cnc2ccccc2c1
0.624

Supply reported z-score belonging to this compound: O=C1O[C@@H](c2ccccc2)[C@@H](c2ccccc2)N2[C@@H](c3ccc(OCCO)cc3)[C@]3(C(=O)Nc4ccc(C#CC5(O)CCCCCC5)cc43)[C@@H](C(=O)NC[C@H](O)c3ccccc3)[C@H]12
-0.535

Supply reported z-score belonging to this compound: C=C(C1=CCN(S(=O)(=O)c2ccc(C)cc2)C1)[C@@H](OC(C)=O)[C@@H]1CCCN1S(=O)(=O)c1ccccc1[N+](=O)[O-]
-1.21

Supply reported z-score belonging to this compound: COCCOC(=O)N1C(=O)[C@@]2(c3ccccc31)[C@H](C(=O)Nc1nc3ccccc3s1)[C@H]1C(=O)O[C@H](c3ccccc3)[C@H](c3ccccc3)N1[C@@H]2c1ccc(O)cc1
-1.05
